Value source: patent US20210324028A1

Biological target: T1, human IL-2Rβ (human, UniProt P14784 27-240, limits assumed)
T1 construct: also called hIL-2Rβ; IL-2 receptor beta
T1 sequence (looked up): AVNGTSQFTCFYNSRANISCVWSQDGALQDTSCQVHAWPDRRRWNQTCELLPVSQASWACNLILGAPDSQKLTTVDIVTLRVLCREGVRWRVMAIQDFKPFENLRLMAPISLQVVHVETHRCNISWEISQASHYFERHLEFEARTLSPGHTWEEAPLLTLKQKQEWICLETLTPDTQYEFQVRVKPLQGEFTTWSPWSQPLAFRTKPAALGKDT
Assay: SPR, steady state
pKd: −log10 of the molar value.
Documented pKd across a set of binders

Binder	pKd
hIL-15 V49R/K11Y (ligand) NWVNVISDLKYIEDLIQSMHIDATLYTESDVHPSCKVTAMKCFLLELQRISLESGDASIHDTVENLIILANNSLSSNGNVTESGCKECEELEEKNIKEFLQSFVHIVQMFINTGGGGSGHHHHHHHHGGGLNDIFEAQKIEWHE	6.84
hIL-15 V49R/N1D (ligand) DWVNVISDLKKIEDLIQSMHIDATLYTESDVHPSCKVTAMKCFLLELQRISLESGDASIHDTVENLIILANNSLSSNGNVTESGCKECEELEEKNIKEFLQSFVHIVQMFINTGGGGSGHHHHHHHHGGGLNDIFEAQKIEWHE	6.51
